We begin with a simple list: items and their reported EC50.
- Test system: Trypanosoma cruzi
- Experiment summary: Antitrypanosomal activity against Trypanosoma cruzi Tulahuen intracellular amastigotes transfected with beta-galactosidase infected in human U937 cells incubated for 72 hrs by spectrophotometry
- Assay type: functional, organism-based
- Assay conditions: U-937, 72 h, read-out: EC50

Observe how each entry below is paired with its result.
>>> print(df.to_string())
                                   molecule  measured_endpoint  measured_value
0  COc1ccc(/C=C/C(=O)OCCCOc2cc(Cl)ccc2Oc2ccc(Cl)cc2Cl)cc1OC               EC50       > 37.2 µM
1  COc1ccc(CCC(=O)OCCCOc2cc(Cl)ccc2Oc2ccc(Cl)cc2Cl)cc1OC               EC50         33.3 µM
2  COc1ccc(/C=C/C(=O)OCCCCCCCOc2cc(Cl)ccc2Oc2ccc(Cl)cc2Cl)cc1OC               EC50         27.4 µM
3  O=C(/C=C/c1ccc(O)c(O)c1)OCCCOc1cc(Cl)ccc1Oc1ccc(Cl)cc1Cl               EC50         52.4 µM
4  O=C(/C=C/c1ccc(O)c(O)c1)OCCCCCCCCOc1cc(Cl)ccc1Oc1ccc(Cl)cc1Cl               EC50         18.4 µM

Asked: Reported EC50 for O=C(/C=C/c1ccc(O)c(O)c1)OCCCCCCCOc1cc(Cl)ccc1Oc1ccc(Cl)cc1Cl : what is it?
Given back: 8.69 µM

Asked: Name the reported EC50 value associated with the molecule O=C(/C=C/c1ccc(O)c(O)c1)OCCCCCCCCCCCCOc1cc(Cl)ccc1Oc1ccc(Cl)cc1Cl
Given back: 34.2 µM

Asked: Consider the molecule shown here: O=C(O)/C=C/c1ccc(O)c(O)c1 [CAFFEIC ACID] What is its recorded EC50?
Given back: 157 µM

Asked: Any idea what its EC50 is? The molecule is O=C(/C=C/c1ccc(O)c(O)c1)OCCCCCOc1cc(Cl)ccc1Oc1ccc(Cl)cc1Cl
Given back: 29.7 µM

Asked: Bench note: what EC50 did O=C(/C=C/c1ccc(O)c(O)c1)OCCCCOc1cc(Cl)ccc1Oc1ccc(Cl)cc1Cl show?
Given back: 8.25 µM

Where these numbers come from: ChEMBL document CHEMBL4130489
